# TEST PROTOCOL: BSK_BE3C_SRB: Viability Assessment in the BioMAP Diversity Plus: BE3C Assay (AID 2283028);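 note: measured 24 h after chemical dosing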
# CONDITION SUMMARY: primary human bronchial epithelial cells
Calls of active or inactive are those of the source. Rule for the calls: active = hit-call score of the fitted dose curve at least 0.9, where 1 is the maximum; inactive = score below 0.9.
Your response should consist of one outcome taken from True = active, False = inactive

Lookup: So what was the verdict on IC(I)I in this test?
Found: False

Lookup: Tell me the assay call for CCCCCCCCCCCCCCCC(=O)OC/C=C(C)/C=C/C=C(C)/C=C/C1=C(C)CCCC1(C)C please.
Found: False

Lookup: Could you please tell me the result logged for CC1(C)C2=CCCC(C)(C)[C@]23CC[C@H]1C3 in this assay?
Found: False

Lookup: Entry O=C1c2ccccc2C(=O)c2c(O)ccc(O)c21 : call = ?
Found: False

Lookup: Entry Oc1c(Cl)cc(Cl)c(Cl)c1Cc1c(O)c(Cl)cc(Cl)c1Cl : call = ?
Found: True

Lookup: // outcome(item) with item = CC(=O)Nc1ccc(C(=O)CCl)cc1
Found: False

Lookup: What classification did COc1cc(Cl)c(OC)cc1N end up with in this test?
Found: False

Lookup: Kindly provide the recorded test outcome for the following compound: COc1ccc(OC)c(N=Nc2c(O)ccc3ccccc23)c1
Found: True

***
Lookup: # fetch the recorded call for CCCCCCC(CO)CCCC (stereo unspecified) here
Found: False
